ASSAY_TEXT: Activity of Beta-lactamase GES-6 K104, S170 mutant
Parameter: Km. Scope: all listed entries.
VALUE_KIND: Km (µM)

CO[C@@]1(NC(=O)Cc2cccs2)C(=O)N2C(C(=O)O)=C(COC(N)=O)CS[C@@H]21	82.3
CC(C)(O/N=C(\C(=O)N[C@@H]1C(=O)N2C(C(=O)[O-])=C(C[n+]3ccccc3)CS[C@H]12)c1csc(N)n1)C(=O)O	149
C[C@@H](O)[C@H]1C(=O)N2C(C(=O)O)=C(SCCNC=N)C[C@H]12 [IMIPENEM ANHYDROUS]	3.92
CC1(C)S[C@@H]2[C@H](NC(=O)Cc3ccccc3)C(=O)N2[C@H]1C(=O)O	64.2
CO/N=C(\C(=O)N[C@@H]1C(=O)N2C(C(=O)O)=C(COC(C)=O)CS[C@H]12)c1csc(N)n1	95.6

====

Tested on: Escherichia coli
ASSAY_TEXT: Antimicrobial activity against Escherichia coli DH5[alpha] by Etest method
Type: functional
Threshold check on MIC: strictly below 0.1 mg/L is Fulfilled; on or above 0.1 mg/L is Not fulfilled.

CO/N=C(\C(=O)N[C@@H]1C(=O)N2C(C(=O)O)=C(COC(C)=O)CS[C@H]12)c1csc(N)n1 [CEFOTAXIME]	Fulfilled
CC1(C)S[C@@H]2[C@H](NC(=O)[C@H](C(=O)O)c3ccsc3)C(=O)N2[C@H]1C(=O)O [TICARCILLIN]	Not fulfilled
C[C@@H](O)[C@H]1C(=O)N2C(C(=O)O)=C(SCCNC=N)C[C@H]12 [IMIPENEM ANHYDROUS]	Fulfilled
C[C@@H](O)[C@H]1C(=O)N2C(C(=O)O)=C(S[C@@H]3CN[C@H](C(=O)N(C)C)C3)[C@H](C)[C@H]12 [MEROPENEM]	Fulfilled
CC(C)(O/N=C(\C(=O)N[C@@H]1C(=O)N2C(C(=O)[O-])=C(C[n+]3ccccc3)CS[C@H]12)c1csc(N)n1)C(=O)O [CEFTAZIDIME]	Not fulfilled
CO[C@@]1(NC(=O)Cc2cccs2)C(=O)N2C(C(=O)O)=C(COC(N)=O)CS[C@@H]21 [CEFOXITIN]	Not fulfilled
CCN1CCN(C(=O)N[C@@H](C(=O)N[C@@H]2C(=O)N3[C@@H]2SC(C)(C)[C@@H]3C(=O)O)c2ccccc2)C(=O)C1=O [PIPERACILLIN]	Not fulfilled

====

ASSAY_TEXT: Activity of Beta-lactamase GES-2 E104, N170 mutant
Reported Km is given for each of the following compounds.
VALUE_KIND: Km

CC1(C)S[C@@H]2[C@H](NC(=O)Cc3ccccc3)C(=O)N2[C@H]1C(=O)O	87.6 µM
CO/N=C(\C(=O)N[C@@H]1C(=O)N2C(C(=O)O)=C(COC(C)=O)CS[C@H]12)c1csc(N)n1 [CEFOTAXIME]	261 µM
C[C@@H](O)[C@H]1C(=O)N2C(C(=O)O)=C(SCCNC=N)C[C@H]12 [IMIPENEM ANHYDROUS]	0.87 µM
CC(C)(O/N=C(\C(=O)N[C@@H]1C(=O)N2C(C(=O)[O-])=C(C[n+]3ccccc3)CS[C@H]12)c1csc(N)n1)C(=O)O [CEFTAZIDIME]	98.2 µM

====

ASSAY_TEXT: Ratio of Kcat to Km for Beta-lactamase GES-6 K104, S170 mutant
kcat/Km listing for selected molecules.
VALUE_KIND: kcat/Km (M⁻¹ s⁻¹)

C[C@@H](O)[C@H]1C(=O)N2C(C(=O)O)=C(SCCNC=N)C[C@H]12 [IMIPENEM ANHYDROUS]	42000
CC(C)(O/N=C(\C(=O)N[C@@H]1C(=O)N2C(C(=O)[O-])=C(C[n+]3ccccc3)CS[C@H]12)c1csc(N)n1)C(=O)O	63000
CO[C@@]1(NC(=O)Cc2cccs2)C(=O)N2C(C(=O)O)=C(COC(N)=O)CS[C@@H]21	150000
CO/N=C(\C(=O)N[C@@H]1C(=O)N2C(C(=O)O)=C(COC(C)=O)CS[C@H]12)c1csc(N)n1	50000
CC1(C)S[C@@H]2[C@H](NC(=O)Cc3ccccc3)C(=O)N2[C@H]1C(=O)O	420000

====

System: Escherichia coli
ASSAY_TEXT: Antimicrobial activity against Escherichia coli DH5[alpha] transformed with pAC-ges1 plasmid encoding Beta-lactamase GES-6 K104, S170 mutant by Etest method
Format: functional
VALUE_KIND: MIC

C[C@@H](O)[C@H]1C(=O)N2C(C(=O)O)=C(S[C@@H]3CN[C@H](C(=O)N(C)C)C3)[C@H](C)[C@H]12 [MEROPENEM]	0.047 µg/mL
CCN1CCN(C(=O)N[C@@H](C(=O)N[C@@H]2C(=O)N3[C@@H]2SC(C)(C)[C@@H]3C(=O)O)c2ccccc2)C(=O)C1=O [PIPERACILLIN]	12 µg/mL
CO/N=C(\C(=O)N[C@@H]1C(=O)N2C(C(=O)O)=C(COC(C)=O)CS[C@H]12)c1csc(N)n1 [CEFOTAXIME]	0.125 µg/mL
CC(C)(O/N=C(\C(=O)N[C@@H]1C(=O)N2C(C(=O)[O-])=C(C[n+]3ccccc3)CS[C@H]12)c1csc(N)n1)C(=O)O [CEFTAZIDIME]	4 µg/mL
CC1(C)S[C@@H]2[C@H](NC(=O)[C@H](C(=O)O)c3ccsc3)C(=O)N2[C@H]1C(=O)O [TICARCILLIN]	> 256 µg/mL
CC1(C)S[C@@H]2[C@H](NC(=O)[C@H](N)c3ccccc3)C(=O)N2[C@H]1C(=O)O [AMPICILLIN]	> 256 µg/mL
C[C@@H](O)[C@H]1C(=O)N2C(C(=O)O)=C(SCCNC=N)C[C@H]12 [IMIPENEM ANHYDROUS]	0.5 µg/mL
C[C@H]1[C@H](NC(=O)/C(=N\OC(C)(C)C(=O)O)c2csc(N)n2)C(=O)N1S(=O)(=O)O [AZTREONAM]	0.094 µg/mL
CO[C@@]1(NC(=O)Cc2cccs2)C(=O)N2C(C(=O)O)=C(COC(N)=O)CS[C@@H]21 [CEFOXITIN]	48 µg/mL

====

ASSAY_TEXT: Activity of Beta-lactamase GES-5 E104, S170 mutant
In this section, each of the compounds is paired with its reported kcat.
VALUE_KIND: kcat (s⁻¹)

CC1(C)S[C@@H]2[C@H](NC(=O)Cc3ccccc3)C(=O)N2[C@H]1C(=O)O	28.6
CC(C)(O/N=C(\C(=O)N[C@@H]1C(=O)N2C(C(=O)[O-])=C(C[n+]3ccccc3)CS[C@H]12)c1csc(N)n1)C(=O)O [CEFTAZIDIME]	0.24
C[C@@H](O)[C@H]1C(=O)N2C(C(=O)O)=C(SCCNC=N)C[C@H]12 [IMIPENEM ANHYDROUS]	0.332
CO/N=C(\C(=O)N[C@@H]1C(=O)N2C(C(=O)O)=C(COC(C)=O)CS[C@H]12)c1csc(N)n1 [CEFOTAXIME]	3.55
CO[C@@]1(NC(=O)Cc2cccs2)C(=O)N2C(C(=O)O)=C(COC(N)=O)CS[C@@H]21 [CEFOXITIN]	7.5

====

ASSAY_TEXT: Activity of Beta-lactamase GES-13 K104, N170 mutant
VALUE_KIND: log10 Km (log10 of the value in µM)

CC1(C)S[C@@H]2[C@H](NC(=O)Cc3ccccc3)C(=O)N2[C@H]1C(=O)O	2.14
C[C@H]1[C@H](NC(=O)/C(=N\OC(C)(C)C(=O)O)c2csc(N)n2)C(=O)N1S(=O)(=O)O [AZTREONAM]	2.61
CO/N=C(\C(=O)N[C@@H]1C(=O)N2C(C(=O)O)=C(COC(C)=O)CS[C@H]12)c1csc(N)n1 [CEFOTAXIME]	1.80
C[C@@H](O)[C@H]1C(=O)N2C(C(=O)O)=C(SCCNC=N)C[C@H]12 [IMIPENEM ANHYDROUS]	0.49
CC(C)(O/N=C(\C(=O)N[C@@H]1C(=O)N2C(C(=O)[O-])=C(C[n+]3ccccc3)CS[C@H]12)c1csc(N)n1)C(=O)O [CEFTAZIDIME]	2.36

====

System: Escherichia coli
ASSAY_TEXT: Antimicrobial activity against Escherichia coli DH5[alpha] transformed with pAC-ges1 plasmid encoding Beta-lactamase GES-5 E104, S170 mutant by Etest method
Type: functional
MIC values by entry
VALUE_KIND: MIC (µg/mL)

CO/N=C(\C(=O)N[C@@H]1C(=O)N2C(C(=O)O)=C(COC(C)=O)CS[C@H]12)c1csc(N)n1	0.125
CC(C)(O/N=C(\C(=O)N[C@@H]1C(=O)N2C(C(=O)[O-])=C(C[n+]3ccccc3)CS[C@H]12)c1csc(N)n1)C(=O)O	0.75
CCN1CCN(C(=O)N[C@@H](C(=O)N[C@@H]2C(=O)N3[C@@H]2SC(C)(C)[C@@H]3C(=O)O)c2ccccc2)C(=O)C1=O	8
C[C@H]1[C@H](NC(=O)/C(=N\OC(C)(C)C(=O)O)c2csc(N)n2)C(=O)N1S(=O)(=O)O	0.032
CO[C@@]1(NC(=O)Cc2cccs2)C(=O)N2C(C(=O)O)=C(COC(N)=O)CS[C@@H]21	16
C[C@@H](O)[C@H]1C(=O)N2C(C(=O)O)=C(S[C@@H]3CN[C@H](C(=O)N(C)C)C3)[C@H](C)[C@H]12	0.094
C[C@@H](O)[C@H]1C(=O)N2C(C(=O)O)=C(SCCNC=N)C[C@H]12 [IMIPENEM ANHYDROUS]	1.5
